# assay.system: GDP-bound KRAS wild-type protein (Homo sapiens, UniProt P01116)
# Sequence (P01116 1-188 isoform P01116-2): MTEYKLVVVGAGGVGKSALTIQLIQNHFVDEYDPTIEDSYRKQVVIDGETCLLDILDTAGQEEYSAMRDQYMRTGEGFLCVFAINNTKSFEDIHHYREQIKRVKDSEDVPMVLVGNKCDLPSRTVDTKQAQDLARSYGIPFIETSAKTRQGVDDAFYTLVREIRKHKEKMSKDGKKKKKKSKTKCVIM
# assay.comment: Binding to KRAS by surface plasmon resonance (SPR), dissociation constant KD
# conditions: 1:1 binding model
readout.kind: Kd (pM)
Give bare numbers, in pM.

Your task in this section: give Kd for each listed record.
1. CCCC[C@H]1C(=O)N[C@@H]([C@@H](C)CC)C(=O)N(C)CC(=O)N(C)[C@H]2C/C=C\CCN(C2=O)[C@@H](Cc2ccc(C(F)(F)F)cc2)C(=O)N(C)CC(=O)N[C@@H](CCc2ccc(C(F)(F)F)c(Cl)c2)C(=O)N2C[C@H](OCC)C[C@H]2C(=O)NC2(CCC2)C(=O)N(C)[C@@H](C2CCCC2)C(=O)N(C)[C@H](C(=O)N(C)CC)CC(=O)N1C
2. CCC(CC)[C@H]1C(=O)N(C)[C@H](C(=O)N(C)C)CC(=O)N(C)[C@@H](COC)C(=O)N[C@@H]([C@@H](C)CC)C(=O)N(C2CC2)CC(=O)N(C)[C@H]2C/C=C\CCN(C2=O)[C@@H](CC2CCCCC2)C(=O)N(C)CC(=O)N[C@@H](CCc2ccc(Cl)c(Cl)c2)C(=O)N2C[C@H](OC(C)C)C[C@H]2C(=O)NC2(CC(C)(C)C2)C(=O)N1C
3. CCO[C@@H]1C[C@H]2C(=O)NC3(CC(C)(C)C3)C(=O)N(C)[C@@H](C3CCCC3)C(=O)N(C)[C@H](C(=O)N(C)C)CC(=O)N(C)[C@@H]([C@@H](C)OC)C(=O)N[C@@H]([C@@H](C)CC)C(=O)N(C)CC(=O)N(C)[C@H]3C/C=C\CCN(C3=O)[C@@H](Cc3ccc(C)cc3)C(=O)N(C)CC(=O)N[C@@H](CCc3ccc(C(F)(F)F)c(Cl)c3)C(=O)N2C1

Found:
1. 86
2. 9300
3. 100
